Each item that follows carries a reported IC50.
target: UniProtKB P08684
Sequence (P08684 whole entry): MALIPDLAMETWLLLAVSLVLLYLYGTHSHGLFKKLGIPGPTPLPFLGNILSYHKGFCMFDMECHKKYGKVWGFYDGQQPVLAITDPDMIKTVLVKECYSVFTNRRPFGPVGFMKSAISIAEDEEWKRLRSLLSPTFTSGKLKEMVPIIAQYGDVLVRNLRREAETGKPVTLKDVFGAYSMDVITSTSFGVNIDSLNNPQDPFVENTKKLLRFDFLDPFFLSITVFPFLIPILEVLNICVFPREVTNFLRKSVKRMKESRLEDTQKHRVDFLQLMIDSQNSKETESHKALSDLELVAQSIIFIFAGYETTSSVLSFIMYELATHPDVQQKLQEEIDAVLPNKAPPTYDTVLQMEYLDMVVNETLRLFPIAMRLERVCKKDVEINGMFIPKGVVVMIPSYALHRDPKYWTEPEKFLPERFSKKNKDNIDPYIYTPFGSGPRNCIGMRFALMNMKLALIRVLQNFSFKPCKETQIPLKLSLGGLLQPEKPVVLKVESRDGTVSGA
Metric Name: IC50

- Structure As Smiles: "CC(=O)N1C2CCC1CN(C(=O)OC1([C@H]3COC[C@@H](CC4CC4)N3S(=O)(=O)c3ccc(Cl)cc3)CC1)C2"
  Recorded Measurement: "> 30 µM"
- Structure As Smiles: "CC[C@H]1CN(C(C)=O)[C@H](C)CN1C(=O)OC1([C@H]2COC[C@@H](CC3CC3)N2S(=O)(=O)c2ccc(Cl)cc2)CC1"
  Recorded Measurement: "> 30 µM"
- Structure As Smiles: "CCNC(=O)N1C2CCC1CN(C(=O)OC1([C@H]3COC[C@@H](CC4CC4)N3S(=O)(=O)c3ccc(Cl)cc3)CC1)C2"
  Recorded Measurement: "> 30 µM"
